- Tested on: Mouse tail fibroblast (MTF) cells
- test-details: in vitro
- condition-context: peptide concentration 10 μM, 200 nM siRNA; 100% represents 100% viability
Mal = not defined here
Listing of entries alongside the reported % Cell Viability.
Expressed in %, but write only the number.

Solved entries (count: 2):
{"substance": "PEG (2 KDa)-Mal-(Lys)20-amide ({PEG 2 kDa-Mal}-KKKKKKKKKKKKKKKKKKKK-NH2; reading uncertain) [PN926]", "% Cell Viability / %": 98.3}
{"substance": "PEG (10 KDa)-Mal-(Lys)15-amide ({PEG 10 kDa-Mal}-KKKKKKKKKKKKKKK-NH2; reading uncertain; also: printed as PEG (10 KDa)-Mal-(Lys)15-amide) [PN931]", "% Cell Viability / %": 97.7}

Consider now this further substance.
Enquiry: I have this substance here, PEG (10 KDa)-Mal-(Lys-His)15-amide ({PEG 10 kDa-Mal}-KHKHKHKHKHKHKHKHKHKHKHKHKHKHKH-NH2; reading uncertain) [PN937] , and I need its recorded % Cell Viability.
Return: 99.4

====

- System: Mouse tail fibroblast (MTF) cells
- test-details: in vitro
- condition-context: peptide concentration 10 μM, 200 nM siRNA; 100% represents 100% viability
Mal = not defined here
readout-type: % Cell Viability (%)
Provide the reading as a plain figure in %.

Worked cases, % Cell Viability given:
{"substance": "PEG (2 KDa)-Mal-(Lys)15-amide ({PEG 2 kDa-Mal}-KKKKKKKKKKKKKKK-NH2; reading uncertain; also: printed as PEG (2 KDa)-Mal-(Lys)15-amide) [PN930]", "readout-type": "% Cell Viability", "measurement": 97.2}
{"substance": "PEG (2 KDa)-Mal-(Lys-His)15-amide ({PEG 2 kDa-Mal}-KHKHKHKHKHKHKHKHKHKHKHKHKHKHKH-NH2; reading uncertain) [PN936]", "readout-type": "% Cell Viability", "measurement": 98.1}
{"substance": "PEG (2 KDa)-Mal-(Lys)10-amide ({PEG 2 kDa-Mal}-KKKKKKKKKK-NH2; reading uncertain; also: printed as PEG (2 KDa)-Mal-(Lys)10-amide) [PN933]", "readout-type": "% Cell Viability", "measurement": 98}
{"substance": "PEG (10 KDa)-Mal-(Lys)10-amide ({PEG 10 kDa-Mal}-KKKKKKKKKK-NH2; reading uncertain; also: printed as PEG (10 KDa)-Mal-(Lys)10-amide) [PN934]", "readout-type": "% Cell Viability", "measurement": 96.2}

Proceed to the following item.
Enquiry: Name the reported % Cell Viability value associated with the substance PEG (10 KDa)-Mal-(Lys-His)10-amide ({PEG 10 kDa-Mal}-KHKHKHKHKHKHKHKHKHKH-NH2; reading uncertain) [PN940]
Return: 98.4

====

Overview of recorded MFI for various substances
- Tested on: Mouse tail fibroblast (MTF) cells
- test-details: siRNA cell-uptake and MFI measured by FACS after peptide-mediated transfection of labeled siRNA
- Type: cell-based
- condition-context: peptide concentration 1 μM, 200 nM labeled siRNA; relative value, higher = more labeled siRNA entered the cell
Mal = not defined here
Form: value (number only, do not type unit).

Here's what some known entries look like.
{"substance": "PEG (10 KDa)-Mal-(Lys-His)15-amide ({PEG 10 kDa-Mal}-KHKHKHKHKHKHKHKHKHKHKHKHKHKHKH-NH2; reading uncertain) [PN937]", "MFI": 3.18}
{"substance": "PEG (2 KDa)-Mal-(Lys-His)15-amide ({PEG 2 kDa-Mal}-KHKHKHKHKHKHKHKHKHKHKHKHKHKHKH-NH2; reading uncertain) [PN936]", "MFI": 2.66}
{"substance": "PEG (10 KDa)-Mal-(Lys-His)10-amide ({PEG 10 kDa-Mal}-KHKHKHKHKHKHKHKHKHKH-NH2; reading uncertain) [PN940]", "MFI": 4.81}
{"substance": "H-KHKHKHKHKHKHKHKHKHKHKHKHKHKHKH-NH2 [PN935, NH2-(Lys-His)15-amide]", "MFI": 1.94}

Enquiry: Endpoint output: MFI of PEG (2 KDa)-Mal-(Lys-His)10-amide ({PEG 2 kDa-Mal}-KHKHKHKHKHKHKHKHKHKH-NH2; reading uncertain) [PN939] . Value?
Return: 3.3

Enquiry: // MFI lookup, key: H-KETWWETWWTEWSQPGRKKRRQRRRPPQ-NH2 [PN183, reference compound]
Return: 3.61
